Tested on: MDA-MB-436
Experimental Protocol: normalised viability (% of control), CellTiter-Blue; higher = more viable cells (about 100 = DMSO control)
Run Parameters: 100 nM; incubation time: 72 h
Each item that follows carries a reported normalised viability.
Observable: normalised viability

[[record]]
compound = "Nc1nc2[nH]cnc2c(=S)[nH]1 [Thioguanine]"
result = "103%"

[[record]]
compound = "O=NN(CCCl)C(=O)NCCCl [Carmustine]"
result = "119%"

[[record]]
compound = "CC1(C)CNc2cc(NC(=O)c3cccnc3NCc3ccncc3)ccc21 [Motesanib]"
result = "79.7%"

[[record]]
compound = "Oc1ncnc2[nH]ncc12 [Allopurinol]"
result = "108%"

[[record]]
compound = "CC1=C2C[C@H]3[C@@H](CC=C4C[C@@H](O)CC[C@@]43C)[C@@H]2CC[C@]12O[C@@H]1C[C@H](C)CN[C@H]1[C@H]2C [Cyclopamine]"
result = "96.3%"


* * *

Overview of reported normalised viability across a group of molecules:
Tested on: Hs578T
Experimental Protocol: normalised viability (% of control), CellTiter-Blue; higher = more viable cells (about 100 = DMSO control)
Run Parameters: 1000 nM; incubation time: 72 h
Observable: normalised viability (%)

[[record]]
molecule = "Oc1ncnc2[nH]ncc12 [Allopurinol]"
tested_system = "Hs578T"
observable = "normalised viability"
number = 120

[[record]]
molecule = "Cn1cc(C2=Nc3cc(NC(=O)C(N)C4CCCCC4)cc4c3C2=CNNC4=O)cn1 (configuration not stated)"
tested_system = "Hs578T"
observable = "normalised viability"
number = 35.1

[[record]]
molecule = "COc1cc(F)c(F)c(Nc2ccc(I)cc2F)c1NS(=O)(=O)C1(C[C@H](O)CO)CC1 [RDEA119]"
tested_system = "Hs578T"
observable = "normalised viability"
number = 69.7

[[record]]
molecule = "CC1(C)CNc2cc(NC(=O)c3cccnc3NCc3ccncc3)ccc21 [Motesanib]"
tested_system = "Hs578T"
observable = "normalised viability"
number = 95.5

[[record]]
molecule = "CC(=O)c1c(C)c2cnc(Nc3ccc(N4CCNCC4)cn3)nc2n(C2CCCC2)c1=O"
tested_system = "Hs578T"
observable = "normalised viability"
number = 83.9

[[record]]
molecule = "C[C@]1(O)C[C@@H](c2nc(-c3ccc4ccc(-c5ccccc5)nc4c3)c3c(N)nccn32)C1 [OSI-906]"
tested_system = "Hs578T"
observable = "normalised viability"
number = 95.2

[[record]]
molecule = "Nc1ncn([C@@H]2O[C@H](CO)[C@@H](O)[C@H]2O)c(=O)n1 [Azacitidine]"
tested_system = "Hs578T"
observable = "normalised viability"
number = 90.2


* * *

Test system: MDA-MB-453
Experimental Protocol: drug sensitivity score (DSS), CellTox Green (DSS (AUC-based score)); higher = stronger drug effect (viability inhibition or cytotoxicity); extreme values may be limits of the assay
Run Parameters: incubation time: 72 h
Each item that follows carries a reported drug sensitivity score.
Observable: drug sensitivity score

[[record]]
compound = "CC1(C)CNc2cc(NC(=O)c3cccnc3NCc3ccncc3)ccc21"
number = 0

[[record]]
compound = "Cn1cc(C2=Nc3cc(NC(=O)C(N)C4CCCCC4)cc4c3C2=CNNC4=O)cn1 (stereo not given)"
number = 3.06

[[record]]
compound = "Cc1sc2c(c1C)C(c1ccc(Cl)cc1)=N[C@@H](CC(=O)OC(C)(C)C)c1nnc(C)n1-2 [(+)JQ1]"
number = 0

[[record]]
compound = "CC(=O)N(O)CCCCCNC(=O)CCC(=O)N(O)CCCCCNC(=O)CCC(=O)N(O)CCCCCN"
number = 0

[[record]]
compound = "C[C@]12CC[C@@H]3c4ccc(OC(=O)N(CCCl)CCCl)cc4CC[C@H]3[C@@H]1CC[C@@H]2O"
number = 0


* * *

Test system: MDA-MB-468
Experimental Protocol: normalised response (% of control), CellTiter-Glo; higher = more viable cells (100 = DMSO, 0 = benzethonium chloride kill control)
Run Parameters: incubation time: 72 h
This section presents compounds with their documented normalised response values.
Observable: normalised response (%)

[[record]]
compound = "O=C1CN2Cc3c(ccc(Cl)c3Cl)N=C2N1 [Anagrelide] (10000 nM)"
tested_system = "MDA-MB-468"
unit_spec = "%"
number = 92

[[record]]
compound = "Oc1ncnc2[nH]ncc12 [Allopurinol] (10000 nM)"
tested_system = "MDA-MB-468"
unit_spec = "%"
number = 97.9

[[record]]
compound = "COc1cc2c(cc1O)CC[C@@H]1[C@@H]2CC[C@]2(C)[C@@H](O)CC[C@@H]12 [2-methoxyestradiol] (10000 nM)"
tested_system = "MDA-MB-468"
unit_spec = "%"
number = 34.4

[[record]]
compound = "CC[C@@H]1C(=O)OC[C@@H]1Cc1cncn1C [Pilocarpine] (40000 nM)"
tested_system = "MDA-MB-468"
unit_spec = "%"
number = 96

[[record]]
compound = "Cc1sc2c(c1C)C(c1ccc(Cl)cc1)=N[C@@H](CC(=O)OC(C)(C)C)c1nnc(C)n1-2 [(+)JQ1] (10000 nM)"
tested_system = "MDA-MB-468"
unit_spec = "%"
number = 36.6

[[record]]
compound = "COc1cc(F)c(F)c(Nc2ccc(I)cc2F)c1NS(=O)(=O)C1(C[C@H](O)CO)CC1 [Refametinib] (10000 nM)"
tested_system = "MDA-MB-468"
unit_spec = "%"
number = 45.2

[[record]]
compound = "CC(C)(C)c1cnc(CSc2cnc(NC(=O)C3CCNCC3)s2)o1 [SNS-032] (10000 nM)"
tested_system = "MDA-MB-468"
unit_spec = "%"
number = 6.47


* * *

System: MDA-MB-231
Experimental Protocol: normalised response (% of control), CellTox Green; higher = less cell death (100 = DMSO, 0 = benzethonium chloride kill control)
Run Parameters: incubation time: 72 h
Measured normalised response by item
Observable: normalised response (%)

[[record]]
molecule = "CC(=O)N(O)CCCCCNC(=O)CCC(=O)N(O)CCCCCNC(=O)CCC(=O)N(O)CCCCCN [Deferoxamine] (1000 nM)"
number = 96.7

[[record]]
molecule = "COc1cc2c(cc1O)CC[C@@H]1[C@@H]2CC[C@]2(C)[C@@H](O)CC[C@@H]12 [2-methoxyestradiol] (1000 nM)"
number = 34.1

[[record]]
molecule = "Nc1nc2[nH]cnc2c(=S)[nH]1 [Thioguanine] (100 nM)"
number = 105

[[record]]
molecule = "CC(=O)c1c(C)c2cnc(Nc3ccc(N4CCNCC4)cn3)nc2n(C2CCCC2)c1=O [Palbociclib] (100 nM)"
number = 103

[[record]]
molecule = "O=NN(CCCl)C(=O)NCCCl [Carmustine] (10000 nM)"
number = 96.9

[[record]]
molecule = "COc1cc2c(cc1O)CC[C@@H]1[C@@H]2CC[C@]2(C)[C@@H](O)CC[C@@H]12 [2-methoxyestradiol] (100 nM)"
number = 99.3

[[record]]
molecule = "Nc1ncn([C@@H]2O[C@H](CO)[C@@H](O)[C@H]2O)c(=O)n1 [Azacitidine] (10000 nM)"
number = 75.5

[[record]]
molecule = "C[C@]12CC[C@@H]3c4ccc(OC(=O)N(CCCl)CCCl)cc4CC[C@H]3[C@@H]1CC[C@@H]2O [Estramustine] (10000 nM)"
number = 102

[[record]]
molecule = "O=NN(CCCl)C(=O)NCCCl [Carmustine] (1000 nM)"
number = 105

[[record]]
molecule = "CC(C)(C)c1cnc(CSc2cnc(NC(=O)C3CCNCC3)s2)o1 [SNS-032] (100 nM)"
number = 4.71

[[record]]
molecule = "Oc1ncnc2[nH]ncc12 [Allopurinol] (10000 nM)"
number = 108

[[record]]
molecule = "CC(C)(C)c1cnc(CSc2cnc(NC(=O)C3CCNCC3)s2)o1 [SNS-032] (10000 nM)"
number = -26.5

[[record]]
molecule = "CC[C@@H]1C(=O)OC[C@@H]1Cc1cncn1C [Pilocarpine] (4000 nM)"
number = 97.8

[[record]]
molecule = "Nc1ncn([C@@H]2O[C@H](CO)[C@@H](O)[C@H]2O)c(=O)n1 [Azacitidine] (100 nM)"
number = 88.1

[[record]]
molecule = "CC(C)(C)c1cnc(CSc2cnc(NC(=O)C3CCNCC3)s2)o1 [SNS-032] (1000 nM)"
number = -97.4

[[record]]
molecule = "Cc1sc2c(c1C)C(c1ccc(Cl)cc1)=N[C@@H](CC(=O)OC(C)(C)C)c1nnc(C)n1-2 [(+)JQ1] (100 nM)"
number = 96.2

[[record]]
molecule = "O=C1CN2Cc3c(ccc(Cl)c3Cl)N=C2N1 [Anagrelide] (1000 nM)"
number = 86.2


* * *

Tested on: MFM-223
Experimental Protocol: normalised viability (% of control), CellTiter-Blue; higher = more viable cells (about 100 = DMSO control)
Run Parameters: 100 nM; incubation time: 72 h
The label is MET for normalised viability below 90% and NOT MET for normalised viability equal to or exceeding 90%.

[[record]]
molecule = "COc1cc(F)c(F)c(Nc2ccc(I)cc2F)c1NS(=O)(=O)C1(C[C@H](O)CO)CC1"
assigned_class = "MET"

[[record]]
molecule = "COc1cc2c(cc1O)CC[C@@H]1[C@@H]2CC[C@]2(C)[C@@H](O)CC[C@@H]12"
assigned_class = "NOT MET"

[[record]]
molecule = "Nc1ncn([C@@H]2O[C@H](CO)[C@@H](O)[C@H]2O)c(=O)n1"
assigned_class = "NOT MET"

[[record]]
molecule = "Cn1cc(C2=Nc3cc(NC(=O)C(N)C4CCCCC4)cc4c3C2=CNNC4=O)cn1 (stereo not given)"
assigned_class = "MET"


Ref: the supplement of paper PMC4862054
